- assay_remarks: Cytotoxicity against human HuH7 cells after 3 days by tetrazolium dye method
- Assay type: cell-based, Huh-7
We begin with a simple list: items and their reported CC50 at 72 h.

- O=C(Nc1cccc(C(F)(F)F)c1)c1c(NO)cc(-c2cccs2)oc1=O: 11 µM
- O=C(Nc1ccc(Br)cc1)c1c(NCCO)cc(-c2cccc(Br)c2)oc1=O: > 20 µM
- O=C(Nc1cc([N+](=O)[O-])ccc1O)c1c(NO)cc(-c2ccccc2)oc1=O: > 20 µM
- Nc1ccccc1NC(=O)c1c(NO)cc(-c2ccccc2)oc1=O: > 20 µM
- COc1cccc(NC(=O)c2c(NO)cc(-c3ccccc3)oc2=O)c1: > 20 µM

Field request: CC50 at 72 h | item: O=C(NCCO)c1c(N2CCCCC2)cc(-c2ccc(F)cc2)oc1=O
> 100 µM

O=C(Nc1ccc(F)cc1)c1c(NCCO)cc(-c2cccc(Br)c2)oc1=O ?
> 20 µM

Request: O=C(Nc1ccc(Cl)cc1)c1c(NCCO)cc(-c2cccc(Br)c2)oc1=O
17 µM

Next: COc1cccc(NC(=O)c2c(NCCO)cc(-c3cccs3)oc2=O)c1
> 20 µM

One more compound: O=C(NC1CCCCC1)c1c(NO)cc(-c2ccccc2)oc1=O
10.5 µM

Another compound: O=C(Nc1ccc(Br)cc1)c1c(NO)cc(-c2cccs2)oc1=O
> 20 µM

Continue with CCC[C@H](NC(=O)[C@@H]1[C@H]2CCC[C@H]2CN1C(=O)[C@@H](NC(=O)[C@@H](NC(=O)c1cnccn1)C1CCCCC1)C(C)(C)C)C(=O)C(=O)NC1CC1 [TELAPREVIR]
> 20 µM

// same read-out, input: COc1ccc(NC(=O)c2c(NO)cc(-c3cccs3)oc2=O)cc1
> 20 µM

O=C(NC1CC1)c1c(NO)cc(-c2ccc(Cl)cc2)oc1=O , same question.
12.8 µM

Then what about the compound COc1ccccc1NC(=O)c1c(NO)cc(-c2ccccc2)oc1=O ?
> 20 µM

Try this compound next: O=C(Nc1ccccc1O)c1c(NCCO)cc(-c2ccccc2)oc1=O
> 20 µM

// query: O=C(Nc1ccccc1)c1c(NCCO)cc(-c2cccc(Br)c2)oc1=O
> 20 µM
